- TARGET DESC: bradykinin 1 receptor (B1R) of the rat (Rattus norvegicus, UniProt P97583)
- Construct: expressed in transfected cells; host or cells: CHO K1 cells
- Sequence (P97583 whole entry): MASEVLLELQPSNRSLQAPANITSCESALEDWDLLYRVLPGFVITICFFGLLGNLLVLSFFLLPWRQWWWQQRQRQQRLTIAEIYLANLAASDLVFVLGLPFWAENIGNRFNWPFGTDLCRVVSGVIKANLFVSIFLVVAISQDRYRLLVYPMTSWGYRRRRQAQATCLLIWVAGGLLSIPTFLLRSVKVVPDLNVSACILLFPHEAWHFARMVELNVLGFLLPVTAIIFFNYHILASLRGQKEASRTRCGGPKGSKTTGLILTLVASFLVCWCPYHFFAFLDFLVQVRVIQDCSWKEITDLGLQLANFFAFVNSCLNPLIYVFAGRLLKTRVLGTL
- EXPERIMENT SUMMARY: Functional investigation on the rat bradykinin 1 receptor (B1R), Ca2+ FLIPR assay in CHO K1 rB1R cells
- Assay type: cell-based
- TEST SETTINGS: B1R antagonism rat; test substance 10 μM; Ca2+ FLIPR, CHO K1 rB1R cells
Could you please report measured B1R Ant. r [10 μM] % Inhibition for the items listed next?
Answers are plain numbers, in %.

Respectfully, I request B1R Ant. r [10 μM] % Inhibition for each entry included below.
1. CN(C)C(CCc1ccccc1)C1CCC(CNC(=O)COCCN(C)S(=O)(=O)c2cccc(C(F)(F)F)c2)CC1 (stereo not shown)
2. COc1cc(C)c(S(=O)(=O)N(C)CCOCC(=O)NCCC2CCC(C(c3ccc(F)cc3)N(C)C)CC2)c(C)c1 (stereo not shown)
3. Cc1ccc(S(=O)(=O)N(C)CCOCC(=O)NCCC2CCC(C(c3cccc(F)c3)N(C)C)CC2)cc1 (stereo not shown)
4. CN(C)C(CCc1ccccc1)C1CCC(CNC(=O)COCCN(C)S(=O)(=O)c2ccc(F)cc2)CC1 (stereo not shown)
5. CN(C)C(c1cccc(F)c1)C1CCC(CNC(=O)COCC2CCCN(S(=O)(=O)c3ccccc3)C2)CC1 (stereo not shown)
6. COc1ccc(S(=O)(=O)N2CCCCC2COCC(=O)NC2CCC(C(c3ccc(F)cc3)N(C)C)CC2)cc1 (stereo not shown)
7. COc1ccc(S(=O)(=O)N(C)CCOCC(=O)NC2CCC(C(c3ccc(F)cc3)N(C)C)CC2)cc1OC (stereo not shown)

1: 20; 2: 103; 3: −14; 4: 32; 5: 7; 6: 52; 7: 11

----------
- TARGET DESC: human bradykinin 1 receptor (B1R) (Homo sapiens)
- Construct: expressed in transfected cells; host or cells: CHO K1 cells
- Sequence (P46663 whole entry): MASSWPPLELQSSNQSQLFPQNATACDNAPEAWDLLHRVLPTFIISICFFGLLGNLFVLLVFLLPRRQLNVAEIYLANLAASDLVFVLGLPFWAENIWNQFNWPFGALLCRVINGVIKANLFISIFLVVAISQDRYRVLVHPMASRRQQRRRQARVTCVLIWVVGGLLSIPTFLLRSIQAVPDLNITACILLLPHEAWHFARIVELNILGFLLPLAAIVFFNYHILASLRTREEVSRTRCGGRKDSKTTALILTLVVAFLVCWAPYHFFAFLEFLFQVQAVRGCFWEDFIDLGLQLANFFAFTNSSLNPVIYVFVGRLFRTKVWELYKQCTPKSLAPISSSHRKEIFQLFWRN
- EXPERIMENT SUMMARY: Functional investigation on the human bradykinin 1 receptor (B1R), Ca2+ FLIPR assay in CHO K1 hB1R cells
- Assay type: cell-based
- TEST SETTINGS: CHO-K1, read-out: B1R Ant. h [10 μM] % Inhibition
OBSERVED PROPERTY: inhibition at 10 µM

Illustrative cases are given below, each with its answer.
For this molecule ( CN(C)C(c1cccs1)C1CCC(NC(=O)COC2CCCN(S(=O)(=O)c3ccccc3)C2)CC1 (stereo not drawn) ), measured inhibition at 10 µM is -14%

For this molecule ( COc1ccc(S(=O)(=O)N2CCCCC2COCC(=O)NC2CCC(C(c3ccccc3)N(C)C)CC2)cc1 (stereo not drawn) ), measured inhibition at 10 µM is 69%

For this molecule ( CN(C)C(c1ccccc1)C1CCC(NC(=O)COCCN(Cc2ccccc2)S(=O)(=O)c2ccccc2)CC1 (stereo not drawn) ), measured inhibition at 10 µM is 9%

For this molecule ( CN(C)C(c1ccccc1)C1CCC(NC(=O)CCNC(=O)c2nc(-c3cc(Cl)cc(Cl)c3)no2)CC1 (stereo not drawn) ), measured inhibition at 10 µM is 34%

Respectfully, I request inhibition at 10 µM for each entry included below.
1. CN(C)C(CCc1ccccc1)C1CCC(NC(=O)CCNC(=O)c2nc(-c3ccc4c(c3)OCO4)no2)CC1 (stereo not drawn)
2. CN(C)C(c1ccccc1)C1CCC(CNC(=O)COC2CCN(S(=O)(=O)c3ccccc3)C2)CC1 (stereo not drawn)
3. CN(C)C(c1cccs1)C1CCC(CNC(=O)COCCN(C)S(=O)(=O)c2ccc(F)cc2)CC1 (stereo not drawn)
4. CN(C)C(c1ccccc1)C1CCC(CNC(=O)COC2CCN(S(=O)(=O)c3ccc(Cl)cc3Cl)C2)CC1 (stereo not drawn)
5. CN(C)C(CCc1ccccc1)C1CCC(NC(=O)CNC(=O)c2nc(-c3ccccn3)no2)CC1 (stereo not drawn)

1. 9%
2. -13%
3. 22%
4. 48%
5. -3%
